assay: Cytotoxicity assay in macrophages (MTT); assay type: cell-based; conditions: mouse, J774A.1 macrophages, pH 7.2

compound | CC50 at 48 h
CCC(O)C#Cc1ccc(-c2ccc(C=O)s2)s1 (centres unmarked) | 216 µM
NC(=S)NN=Cc1ccc(-c2ccc(C#CCCO)s2)s1 | 224 µM
OCCC#Cc1ccc(-c2ccc(C=NC3CCCCC3)s2)s1 | 271 µM
CC(C)N=Cc1ccc(-c2ccc(C#CC(C)(C)O)s2)s1 | 281 µM
CCCCN=Cc1ccc(-c2ccc(C#CC(C)(C)O)s2)s1 | 296 µM

* * *

Examples of compounds with documented CC50 at 48 h follow.
test: Cytotoxicity assay in macrophages (MTT); format: cell-based; conditions: mouse, J774A.1 macrophages, pH 7.2

compound | CC50 at 48 h [µM]
O=Cc1ccc(-c2ccc(C#CCCO)s2)s1 [Compound 2] | 198
CC(C)(O)C#Cc1ccc(-c2ccc(C=NC3CCCCC3)s2)s1 [Compound 3c] | 238
CC(C)(O)C#Cc1ccc(-c2ccc(C=O)s2)s1 [Compound 3] | 283
CC(C)N=Cc1ccc(-c2ccc(C#CCCO)s2)s1 [Compound 2a] | 289
CC(C)(O)C#Cc1ccc(-c2ccc(/C=N/NC(N)=S)s2)s1 [Compound 3d] | 220
CCCCN=Cc1ccc(-c2ccc(C#CCCO)s2)s1 [Compound 2b] | 274
